Hi there, I'd appreciate the recorded IC50 for every entry that follows.
target: ATX (human His-tagged) (Homo sapiens (Human), UniProt Q13822); assay: Human ATX enzyme inhibition assay (fluorescence quenching, MR121 substrate); assay type: biochemical; conditions: 30 nM ATX, 1 μM MR121 substrate, 30° C., pH 8.0; read-out: ATX IC50
Write down the numeric answer in nM and omit the unit.

Please supply the value of reported IC50 for the item CO[C@@]12CN(C(=O)c3cc(OCC4CCOCC4)nc(C4CC4)c3)C[C@H]1CN(C(=O)N1CCc3c(O)noc3C1)C2 (single isomer, unassigned) [Example 3.01]
20

Please supply the value of reported IC50 for the item CO[C@]12CN(C(=O)CCc3ccc(OC(F)(F)F)cc3)C[C@@H]1CN(C(=O)N1CCc3c(O)noc3C1)C2 (relative stereo)
120

Please supply the value of reported IC50 for the item CO[C@]12CN(C(=O)c3cc(OCC4CCOCC4)nc(C4CC4)c3)C[C@@H]1CN(C(=O)N1CCc3c(O)noc3C1)C2 (relative stereo)
18

Please supply the value of reported IC50 for the item CO[C@@]12CN(C(=O)OCc3ccc(OC(F)(F)F)cc3)C[C@H]1CN(C(=O)c1ccc3[nH]nnc3c1)C2 (single isomer, unassigned) [Example 4.03]
7

Please supply the value of reported IC50 for the item CO[C@]12CN(C(=O)CCc3ccc(OC(F)(F)F)cc3)C[C@@H]1CN(C(=O)N1CCc3[nH]nnc3C1)C2 (relative stereo)
30

Please supply the value of reported IC50 for the item CO[C@@]12CN(C(=O)c3cc(OCC4CCOCC4)nc(C4CC4)c3)C[C@H]1CN(C(=O)c1ccc3[nH]c(=O)n(C)c3c1)C2 (relative stereo)
2

Please supply the value of reported IC50 for the item CO[C@@]12CN(C(=O)c3cc(OCC4CCOCC4)nc(C4CC4)c3)C[C@H]1CN(C(=O)N1CCc3c(O)noc3C1)C2 (single isomer, unassigned) [Example 4.01]
8

Please supply the value of reported IC50 for the item O=C(OCc1ccc(OC(F)(F)F)cc1)N1C[C@@H]2CN(C(=O)c3ccc4[nH]nnc4c3)C[C@@]2(F)C1 (relative stereo)
5

Please supply the value of reported IC50 for the item CO[C@]12CN(C(=O)OCc3ccc(OC(F)(F)F)cc3)C[C@@H]1CN(C(=O)c1ccc3[nH]nnc3c1)C2 (relative stereo)
12

Please supply the value of reported IC50 for the item C[C@@]12CN(C(=O)OCc3ccc(OC(F)(F)F)cc3)C[C@H]1CN(C(=O)c1ccc3[nH]nnc3c1)C2 (single isomer, unassigned) [Example 4.02]
6

###

target: ATX (human His-tagged) (Homo sapiens (Human), UniProt Q13822); test: Human ATX enzyme inhibition assay (fluorescence quenching, MR121 substrate); format: biochemical; conditions: 30 nM ATX, 1 μM MR121 substrate, 30° C., pH 8.0; read-out: ATX IC50
measure-name: pIC50
// pIC50 is dimensionless: -log10 of concentration (M)

Please supply the value of reported pIC50 for the item CO[C@]12CN(C(=O)CCc3ccc(OC(F)(F)F)cc3)C[C@@H]1CN(C(=O)c1ccc3[nH]nnc3c1)C2 (relative stereo)
8.00

Please supply the value of reported pIC50 for the item CO[C@@]12CN(C(=O)c3cc(OCC4CCOCC4)nc(C4CC4)c3)C[C@H]1CN(C(=O)c1ccc3[nH]nnc3c1)C2 (relative stereo)
7.89

Please supply the value of reported pIC50 for the item CO[C@]12CN(C(=O)CCc3ccc(OC(F)(F)F)cc3)C[C@@H]1CN(C(=O)c1ccc3[nH]c(=O)n(C)c3c1)C2 (relative stereo)
7.74

Please supply the value of reported pIC50 for the item CO[C@@]12CN(C(=O)OCc3ccc(OC(F)(F)F)cc3)C[C@H]1CN(C(=O)c1ccc3[nH]nnc3c1)C2 (single isomer, unassigned) [Example 3.03]
7.72

Please supply the value of reported pIC50 for the item C[C@]12CN(C(=O)OCc3ccc(OC(F)(F)F)cc3)C[C@@H]1CN(C(=O)c1ccc3[nH]nnc3c1)C2 (relative stereo)
7.89

Please supply the value of reported pIC50 for the item C[C@@]12CN(C(=O)OCc3ccc(OC(F)(F)F)cc3)C[C@H]1CN(C(=O)c1ccc3[nH]nnc3c1)C2 (single isomer, unassigned) [Example 3.02]
7.92
